experiment: soluble fraction after stress (log2 fold change); higher = more stays soluble; pooled small domains, quantitative proteomics; details: stress: pH 4
Decision: soluble fraction (log2) compared against -0.1; not below it gives TRUE, below it gives FALSE.

Test whether the sequence `HMEGNLVEIFEDAFGRTMSTMDIEYINQFKRTGYDDEMIVSALREAVKSNALSFRYIERVLENWAHS` records soluble fraction (log2) of -0.1 or higher. FALSE

Decide: is the reported value of soluble fraction (log2) for `HMGEVQALIPGLVSKLFVVEGESVKIGQKLIILEAMKMENEIASPINGTIKKIYIKSGDKIDKGSIIMEIT` equal to or greater than -0.1? TRUE

Tell me whether soluble fraction (log2) is at least -0.1 here: `HMASMEDILAEAKTKFQEGDLFKSVNEGIQGTHKLTLPLRIKESRIVDASGAAVYREGIWATVDK` TRUE

For this sequence, is measured soluble fraction (log2) -0.1 or higher? `HMEPVIELGDRTLPIEITRHRRARRLTLRLAADGSAVRITLPHWARSAEATAFAHARRDWLAAQLAK` TRUE

Decide: is the reported value of soluble fraction (log2) for `HMFEERKKDWNLTGLLDDVIRRYIHQLTNDELNEINLEKSSGMPDEEIKNGIKLPLAVMQQRRETWGS` equal to or greater than -0.1? FALSE

// inclusive: soluble fraction (log2) at least -0.1? input: `HMPVGSIGERLKALRLKAGLTQEEVGQHVHISKQTLYKYENGIVTNIPADKIELLATIYSVTPAYIMGWA` FALSE

Determine whether this sequence has soluble fraction (log2) no lower than -0.1: `HMNTRWDDAAQTWLRKVIEQQPVLVQISAAKRLRDQAEQRAREAGEEVVTEQHVKRAGLELGFGEP` FALSE

###

assay: soluble fraction after stress (log2 fold change); higher = more stays soluble; pooled small domains, quantitative proteomics; conditions: stress: pH 4
Returns the class for an entry based on its soluble fraction (log2). Class ranges: bottom bin: < -0.5; middle bin: ≥ -0.5 and < -0.2; top bin: ≥ -0.2

Use these answered entries as a reference point.
Categorize the following entry: `HMDTVIAEVTASILNLRRSAGTSSDIIGKLNKGEKVSIIGGSGNWKNVRTSGGITGWVYHEYLSTY` top bin

Given `HMETVVTEVKTTDVVNIRTSDSETADKLSKAAIGDTFPLLEERGNGWSKVAYNGEEAFIKSDYLEPSKTE` , name the class its soluble fraction (log2) places it in. bottom bin

Where would `HMLPVYSITEAAERLDIPASTIKWYADRFASYISPSKGKGRKRFTPEDLATLQKIHELSQDHTTEEAEAML` land among the classes by reported soluble fraction (log2)? bottom bin

Please indicate the class for `HMRLDHIFSVVERLKGVSLGAGDRLEVQKYEDLLTVYKSKNALSSEEAQTLNDILASLLKMMAKYD` based on its soluble fraction (log2). bottom bin

New cases:
Hello team, could you let me know which band the following sequence falls into: `HMLLRVGGLVKDGSVRTDNDLGIKFIIEDNLAEVSVLYNGILPDLFREGQGVIAEGKFIDNIFIANEIVA` bottom bin

Given `HMFKEVPVPDVKGMTLEEAKLALEKEGFILGKTEEAESTEVAAGKIISQNLEAGKIAKQGTSVNLVVSKGK` , name the class its soluble fraction (log2) places it in. top bin

Which class holds `HMEEYTVEFVKHKVKRKQTLYTISKLYNVSIDDIIKYNSQIEGFNLSRRMELNIPVKKTLIVKNE` ? bottom bin

Place this sequence in its band: `HMPEITPAMIKALLSSLSEELAFASVTKVYAVLHNLFKAALLDDTIDRNPMDKVPRPRKSKDAAL` middle bin

Please report the category associated with `HMAYRLDVRNQTKGTYLVIQKKYWDKEKKQSRTKHHMSLGYVHDLQKLYSDPITHYKEVINQMNAEEKG` , nothing else. top bin

The entry to classify is `HMDRVSEITLTRLRDYAADGQVRTATLTHRTNVVTGTLRDGRRFSAGVPPMYGDELTTFLLDNGVRVDSDN` ; which class holds it? middle bin

###

Let's look at some sequences and their measured soluble fraction (log2).
assay: soluble fraction after stress (log2 fold change); higher = more stays soluble; pooled small domains, quantitative proteomics; settings: stress: pH 4
Reply with just the number.

Find the measured soluble fraction (log2) of `HMLEQEQFESKLLKAINNINETQRIAFLMHRIDGKKYAEIASELNISVKAVEKRIHLALIELKKEIENF` and report it. -0.396

Continuing:
Provide one value: measured soluble fraction (log2) of `HMSGEPVKSTLPGNVFKILVAVGDSVKKGQRMFVLEAMKMEIDVNAPKDGLVTSIEVQQGQTVANGQILAK` 0.181

Give the reported value of soluble fraction (log2) for this record: `HMSKPIREVAYETLKNAIVTGEIPAGSRIVETEYAERMHISRTPLREALRKLERDGLVEYVVRRGVVVRAF` -0.303

Please supply the value of reported soluble fraction (log2) for the item `HMASVLTAKLSEREVDVLNLLARGFTNADIAAQLHLSEGTVRNHVSTIFAKLDVNDRTQAAVIAIRHGL` -0.176

Look up soluble fraction (log2) of `HMLLTPLEETRLVIEEIVIPQKLTIDLLPRSSAIRKLQHELITHYQLRGTSVGNEPNRRLRIYP` and report it. -0.633

Tell me soluble fraction (log2) reported for `HMKRSFGYIRLLPSKRYQASYIGPDSQRHAAPETFTRKMDAEGWLSAERRLIEWDQWTSPEQRAAQARLD` 0.127

Find the measured soluble fraction (log2) of `HMFTGELESRVFELNYVDGLVASAALAGVLTDKGSATPIASRAGGENDMLLVVDRIASYSQIEKIITQLD` and report it. -1.31

###

assay: soluble fraction after stress (log2 fold change); higher = more stays soluble; pooled small domains, quantitative proteomics; settings: stress: pH 4
Rule: soluble fraction (log2) of -0.3 or more gives YES; anything lower gives NO.

Has `HMELADLPSAQIREILAYVYRAPLEKRRDPSIHWLLIAAHKLTLPLLDRLDPADARALGERYGADYP` a recorded soluble fraction (log2) greater than or equal to -0.3? NO

Does the sequence `HMRRGFGYVRKLPSGRWQASFVGPDLARHSAPHTFETKGDAEGWLGRRQADVVAGEWRPPVP` have recorded soluble fraction (log2) that is -0.3 or more? YES

Is soluble fraction (log2) for `HMGEWHQMLRSWGETELKNGRQNILDEAVPAFERAMIETALAHTSGRKKDAALLLGWGRNTLTRKLQEHSI` at or above -0.3? NO

Given `HMDAMLGEALRLIRVYHDLKQKQAAERLEVSTSYLSEIERGLKTPTLDIIQRYATVFDMPVSSIMFFSENL` , state whether its soluble fraction (log2) is at least -0.3. NO

Quick check: does `HMNINHEINIKSKKKISILENNPNLSQFYLTKNPDQYNYNLVFSDKSELNKLKEKLESDNEVEDIDIRYG` have soluble fraction (log2) greater than or equal to -0.3? YES

Can `HMSSPVGIAQATTYVYVRAGHSMQAAKVGVLSPGEKVGVTGRSAQGFSEVVYNGVHRWVGSRYLSPT` be said to have soluble fraction (log2) at or above -0.3? YES

# bool: soluble fraction (log2) of `HMNSILFAITKEGGVVYGGKPVGVNGVRPLVRRLLQSEEMPVILQVDEKADAGLVIRVIDESKLGGASKV` >= -0.3 YES

Textbook exercise: given the entry `HMNKPLFVYPNPVHQGKINLSKATNFMVVDLLGQTVNKTNYGKDFSIDNLPNGVYFIKTTEGEIIKFMK` , state whether its soluble fraction (log2) is greater than or equal to -0.3. NO

hey, is soluble fraction (log2) for this one >= -0.3? `HMDLFLVYQFIRRLATPFTEWKAHELGIIDDKGVQLKKRRDFTTREEKDAYGIFDIMITKLKRLIEKV` NO

###

experiment: soluble fraction after stress (log2 fold change); higher = more stays soluble; pooled small domains, quantitative proteomics; details: stress: pH 4
Metric: soluble fraction (log2)
In your answer, state the number alone without any accompanying words.

Answered cases to consult:
Indicate its recorded soluble fraction (log2); the sequence in question is `HMVEMSNMELVREQYFQNLIYNVGDWVKDSKTEITGEVVKRGTNYLTIVQEDFTLHKVWLEDAESME` -1.46

Name the recorded soluble fraction (log2) of the item `HMKYNETEFKNLVAKLYNGEIEIVGKFTGLSYPILVKDKYGIMLSQKANLILNYRPTINIALNKTEYAMN` in your answer. -0.4

Look up and state reported soluble fraction (log2) for `HMVTPAQQARDTLLGALVGLARATTSEPKTDDTDVVLNAGLRLAAQPDAPEERLQRMLAIVQTEKHRV` 0.215

More entries:
Note soluble fraction (log2) for the sequence shown: `HMSMRIDTNTLNYYVQNAQISLSVLRTKINNLDQFLSGEKQPTFNQLSEIAKKINVPTGLLLLNKS` -0.698
